target: Tumor necrosis factor receptor superfamily member 10B (Homo sapiens); test: compound enhancement of TRAIL-induced cell killing – NB7 cells plus caspase-8, luminescence, panel, dose response (AID 652002); conditions: NB7 neuroblastoma +caspase-8, TRAIL sensitization, luminescence viability; NB7+Caspase-8; with TRAIL, mean of runs
Activity calls are given as the source filed them. No rule for the calls is given here.
quantity kind: EC50

{"compound": "CCOC(=O)c1sc(NC(=O)c2cc(-c3ccccc3C)nc3ccccc23)c(C#N)c1C", "data value": "> 12.5 µM (inactive)"}
{"compound": "CCOC(=O)c1cnc2c(-c3ccccc3)cnn2c1N", "data value": "> 12.5 µM (inactive)"}
{"compound": "CC(C)CCn1c(=O)c(C(=O)Nc2ccccc2S(N)(=O)=O)c(O)c2ccccc21", "data value": "> 12.5 µM (inactive)"}
{"compound": "O=C1c2ccc(Cl)cc2S(=O)(=O)c2cccc(C(=O)N3CCC(Cc4ccccc4)CC3)c21", "data value": "> 12.5 µM (inactive)"}
{"compound": "C/C(=N\\NC(=O)c1csc(C)c1C)c1ccco1", "data value": "> 12.5 µM (inactive)"}

Provide the reported EC50 of each entry below, same order.
1. Cc1cccc2nc(=S)n(C(=O)c3ccco3)n12
2. CCCCc1nc(NCCN)c(C#N)c2c1CSC(C)(C)C2
3. Cc1nc(Cl)c2oc3ccccc3c2n1
4. COc1cccc(N/C=C/C(=O)c2ccc(Cl)cc2)c1
5. COc1ccc2sc(-c3ccc(S(C)(=O)=O)cc3)c(C#Cc3cncn3C)c2c1

["> 12.5 µM (inactive)", "> 12.5 µM (inactive)", "> 12.5 µM (inactive)", "inactive", "> 12.5 µM (inactive)"]

Each compound below has a reported value. Please supply its EC50.
1. CCOc1ccc(NC(=O)c2ccco2)cc1
2. CCOc1ccc(/C=C/C(=O)Nc2cccc(C(C)=O)c2)cc1
3. NNC(=O)C1CCCn2c1nc1sc3c(c1c2=O)CCCC3 (stereo unspecified)
4. C/C(=N\NC(=O)c1n[nH]c2c1CCC2)c1ccco1

["inactive", "> 12.5 µM (inactive)", "> 12.5 µM (inactive)", "> 12.5 µM (inactive)"]

Look at each compound and report its EC50.
1. CN(C)CCCN(C(=O)c1ccc(S(=O)(=O)N2CCCc3ccccc32)cc1)c1nc2ccc(F)cc2s1
2. CSc1ccc(/C=C/c2ccc3cccc(O)c3n2)cc1
3. Cc1ccc(NC(=O)c2cc3ccccc3o2)nc1
4. O=C1CCCc2nc(N3CCc4ccccc43)ncc21
5. COc1ccc(OCC(=O)N/N=C/C=C/c2ccccc2)cc1

1. > 12.5 µM (inactive)
2. inactive
3. inactive
4. > 12.5 µM (inactive)
5. inactive

* * *

target: Tumor necrosis factor receptor superfamily member 10B (Homo sapiens); assay: compound enhancement of TRAIL-induced cell killing – NB7 cells plus caspase-8, luminescence, panel, dose response (AID 652002); settings: NB7 neuroblastoma +caspase-8, TRAIL sensitization, luminescence viability; NB7+Caspase-8; with TRAIL, mean of runs
The source made the active and inactive calls. The rule behind the calls is not given here.
quantity kind: EC50

Guide cases for EC50, answers given:
{"compound": "CCCCCc1cc(=O)oc2c(C(CCN(CC)CC)c3cc(OC)c(OC)c(OC)c3)c(OC)cc(OC)c12 (stereo not given)", "data value": "inactive"}
{"compound": "COC(=O)CSc1nc2cc(C)ccc2cc1C#N", "data value": "inactive"}
{"compound": "O=C(N/N=C/c1ccc2cccnc2c1)c1ccco1", "data value": "inactive"}
{"compound": "CC(C)(C)OC(=O)[C@H](Cc1ccccc1)NC(=O)c1[nH]cnc1C(=O)Nc1ccccc1F", "data value": "> 12.5 µM (inactive)"}

Briefly, EC50 measured for Cc1onc(-c2c(Cl)cccc2Cl)c1C(=O)ONC(=O)c1ccccc1 : > 12.5 µM (inactive)

Cited source: PubChem BioAssay AID652002
